- target of assay: Endothelin-1 receptor (Rattus norvegicus)
- Sequence (P26684 whole entry): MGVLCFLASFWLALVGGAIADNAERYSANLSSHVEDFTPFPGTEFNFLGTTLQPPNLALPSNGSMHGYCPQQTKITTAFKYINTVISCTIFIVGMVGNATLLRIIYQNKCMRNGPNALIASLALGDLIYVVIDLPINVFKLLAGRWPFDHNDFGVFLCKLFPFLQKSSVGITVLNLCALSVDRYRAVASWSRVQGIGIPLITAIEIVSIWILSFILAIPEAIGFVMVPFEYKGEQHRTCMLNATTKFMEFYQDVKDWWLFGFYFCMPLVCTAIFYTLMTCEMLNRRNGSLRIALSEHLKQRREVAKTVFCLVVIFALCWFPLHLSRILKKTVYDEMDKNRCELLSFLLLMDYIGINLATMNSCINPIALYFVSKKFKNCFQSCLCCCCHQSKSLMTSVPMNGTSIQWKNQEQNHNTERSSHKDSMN
- test details: Displacement of [125I]endothelin-1 from ETA receptor in rat A10 cells by scintillation counting
// pIC50 lookup, one value per entry
// scale note: pIC50 = -log10(conc_M); give the bare number

INSERT INTO assay_data (line_notation, readout_value) VALUES
  ('COC[C@@H]1Cc2cc3c(c(OC)c2[C@H](c2ccc(OC)c(OC)c2)[C@H]1COC)OCO3', 3.40);

Now for the compound whose pIC50 we want.
State the recorded pIC50 for this entry: COC[C@@H]1Cc2cc(OC)c3c(c2[C@H](c2ccc(OC)c(OC)c2)[C@H]1COC)OCO3
3.24

====

- target of assay: Endothelin receptor type B (Homo sapiens)
- Sequence (P24530 whole entry): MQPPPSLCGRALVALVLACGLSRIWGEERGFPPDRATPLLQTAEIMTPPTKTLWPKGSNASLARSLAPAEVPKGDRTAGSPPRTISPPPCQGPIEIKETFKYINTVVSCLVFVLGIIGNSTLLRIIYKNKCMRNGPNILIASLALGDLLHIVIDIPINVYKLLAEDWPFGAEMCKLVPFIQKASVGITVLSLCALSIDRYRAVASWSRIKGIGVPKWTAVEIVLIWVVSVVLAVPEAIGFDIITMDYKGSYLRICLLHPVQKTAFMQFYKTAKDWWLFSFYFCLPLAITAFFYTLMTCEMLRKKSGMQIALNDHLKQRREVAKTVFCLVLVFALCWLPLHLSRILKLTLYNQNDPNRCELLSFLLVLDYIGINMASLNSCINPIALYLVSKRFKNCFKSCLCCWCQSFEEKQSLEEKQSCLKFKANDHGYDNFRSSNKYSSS
- test details: Displacement of [125I]endothelin-1 from human recombinant ETB receptor expressed in CHO cells
pIC50: −log10 of the molar value.
readout type: pIC50

// below: answered compounds
INSERT INTO measurements (line_notation, readout_type, readout_value) VALUES
  ('COC[C@H](Cc1ccc(OC)c(OC)c1)[C@H](COC)Cc1ccc(OC)c(OC)c1', 'pIC50', '< 3.30'),
  ('COC[C@@H]1Cc2cc3c(c(OC)c2[C@H](c2ccc(OC)c(OC)c2)[C@H]1COC)OCO3', 'pIC50', '< 3.30');

State the recorded pIC50 for this entry: COC[C@@H]1Cc2cc(OC)c3c(c2[C@H](c2ccc(OC)c(OC)c2)[C@H]1COC)OCO3
< 3.30
